Value source: ChEMBL document CHEMBL1126694

We begin with a simple list: items and their reported GI50.
Test system: A549
Protocol description: In vitro cytotoxicity against A549/ATCC cell line.
Assay type: functional
Conditions used: Homo sapiens
Parameter: GI50

>>> experimental_result("COc1cc2c(c(OC)c1OC)-c1ccc(SC)c(=O)cc1[C@@H](NC(=O)c1cccc([N+](=O)[O-])c1)CC2")
"33.1 nM"
>>> experimental_result("COc1cc2c(c(OC)c1OC)-c1ccc(SC)c(=O)cc1[C@@H](NCc1cccc(C#N)c1)CC2")
"< 7.59 nM"
>>> experimental_result("COc1cc2c(c(OC)c1OC)-c1ccc(OC)c(=O)cc1[C@@H](NC(C)=O)CC2 [COLCHICINE]")
"< 63.1 nM"
>>> experimental_result("COc1cc2c(c(OC)c1OC)-c1ccc(SC)c(=O)cc1[C@@H](NC(=O)c1ccc(Cl)cc1)CC2")
"< 10 nM"
>>> experimental_result("COc1cc2c(c(OC)c1OC)-c1ccc(SC)c(=O)cc1[C@@H](NC(=O)c1ccc([N+](=O)[O-])cc1)CC2")
"< 10 nM"
>>> experimental_result("COc1cc2c(c(OC)c1OC)-c1ccc(SC)c(=O)cc1[C@@H](NCc1ccc(C#N)cc1)CC2")
"< 10 nM"
>>> experimental_result("COc1cc2c(c(OC)c1OC)-c1ccc(SC)c(=O)cc1[C@@H](NCc1ccc([N+](=O)[O-])cc1)CC2")
"< 10 nM"
>>> experimental_result("COc1cc(CN[C@H]2CCc3cc(OC)c(OC)c(OC)c3-c3ccc(SC)c(=O)cc32)cc(OC)c1")
"37.1 nM"
>>> experimental_result("CCCCCC(=O)N[C@H]1CCc2cc(OC)c(OC)c(OC)c2-c2ccc(SC)c(=O)cc21")
"< 10 nM"
